The reported numbers originate from patent US20210324080A1.

system tested: T1, CTLA-4-hFc (immunogen A; hFc-labeled CTLA-4 extracellular domain protein) (human, UniProt P16410 36-161)
T1 construct: range 36-161; Made in HEK293 cells, purified on protein A; also called CLTA-4-hFc; CTLA-4 protein; not shown: human IgG Fc fragment (hFc) of the pCpC vector
T1 sequence (looked up): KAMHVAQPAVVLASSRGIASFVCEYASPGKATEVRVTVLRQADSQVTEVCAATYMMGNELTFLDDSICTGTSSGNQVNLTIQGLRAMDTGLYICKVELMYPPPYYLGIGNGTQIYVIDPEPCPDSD
protocol text: blocking assay, CTLA-4 protein, competitor B7.2
reported metric: % Block at 1.6 nM
Could you give the number and then its unit, please?

Worked cases, answers included:
>>> test_result("31C12F3 fully human CTLA-4 antibody (human IgG1, kappa) (antibody, V domains shown, also called mAb010) VH: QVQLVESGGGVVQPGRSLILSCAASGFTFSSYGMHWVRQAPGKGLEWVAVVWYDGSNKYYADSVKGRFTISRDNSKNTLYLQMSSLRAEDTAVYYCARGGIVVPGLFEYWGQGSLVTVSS VL: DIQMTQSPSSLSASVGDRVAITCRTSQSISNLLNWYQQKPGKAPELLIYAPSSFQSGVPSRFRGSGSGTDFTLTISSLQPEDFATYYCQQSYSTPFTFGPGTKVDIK")
"99%"
>>> test_result("97A8D1 fully human CTLA-4 antibody (human IgG1, kappa) (antibody, V domains shown, also called mAb49; mAb049) VH: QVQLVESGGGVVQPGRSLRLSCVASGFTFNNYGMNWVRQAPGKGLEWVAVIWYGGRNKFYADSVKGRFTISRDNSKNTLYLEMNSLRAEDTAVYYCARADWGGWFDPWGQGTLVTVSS VL: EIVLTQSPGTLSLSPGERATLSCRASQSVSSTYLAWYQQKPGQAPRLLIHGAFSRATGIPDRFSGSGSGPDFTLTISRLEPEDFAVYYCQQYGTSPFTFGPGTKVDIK")
"99%"
>>> test_result("92C8B6 fully human CTLA-4 antibody (human IgG1, kappa) (antibody, V domains shown, also called mAb42; mAb042) VH: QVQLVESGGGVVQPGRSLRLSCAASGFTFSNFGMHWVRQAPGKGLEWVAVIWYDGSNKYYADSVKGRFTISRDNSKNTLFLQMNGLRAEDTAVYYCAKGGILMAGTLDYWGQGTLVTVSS VL: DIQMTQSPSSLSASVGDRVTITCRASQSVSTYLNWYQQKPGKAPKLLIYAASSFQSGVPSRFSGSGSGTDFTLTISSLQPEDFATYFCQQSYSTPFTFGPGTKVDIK")
"98.7%"

Consider the binder 40C4C6 fully human CTLA-4 antibody (human IgG1, kappa) (antibody, V domains shown, also called mAb09; mAb009) VH: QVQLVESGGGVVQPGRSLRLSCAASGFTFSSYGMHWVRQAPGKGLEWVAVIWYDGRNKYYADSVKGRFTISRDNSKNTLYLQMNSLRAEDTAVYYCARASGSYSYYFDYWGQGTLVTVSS VL: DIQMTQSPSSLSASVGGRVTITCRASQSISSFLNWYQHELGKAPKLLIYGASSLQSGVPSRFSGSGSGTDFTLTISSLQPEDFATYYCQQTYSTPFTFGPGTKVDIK . State its measured % Block at 1.6 nM.
99.1%
